TARGET ENTITY: GLUT1 (Homo sapiens, UniProt P11166)
Sequence (P11166 whole entry): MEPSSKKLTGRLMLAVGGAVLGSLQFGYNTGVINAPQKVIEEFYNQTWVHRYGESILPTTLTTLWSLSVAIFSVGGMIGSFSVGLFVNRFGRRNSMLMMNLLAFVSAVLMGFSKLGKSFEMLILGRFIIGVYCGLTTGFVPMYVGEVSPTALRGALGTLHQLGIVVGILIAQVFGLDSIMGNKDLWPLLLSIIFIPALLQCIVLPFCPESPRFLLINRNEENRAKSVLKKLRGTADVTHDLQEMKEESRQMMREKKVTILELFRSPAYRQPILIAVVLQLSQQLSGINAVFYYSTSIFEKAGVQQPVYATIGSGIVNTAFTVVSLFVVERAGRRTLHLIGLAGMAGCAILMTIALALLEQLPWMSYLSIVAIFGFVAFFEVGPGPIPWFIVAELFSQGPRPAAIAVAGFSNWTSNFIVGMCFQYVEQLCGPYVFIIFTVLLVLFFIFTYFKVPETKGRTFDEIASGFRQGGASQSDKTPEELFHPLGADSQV
Assay type: binding
EXPERIMENTAL PARAMETERS: read-out: Ki (affinity of unoccupied GLUT1 for ligand); 50 nM [3H]-CB, 4°C, eqn 6, iterative free [I]
Ki values for the compounds below.
Respond numerically; units are nM and should not be typed.

Which Ki is reported for this compound? C=C[C@@]1(C)CC(=O)[C@]2(O)[C@@]3(C)[C@@H](OC(C)=O)CCC(C)(C)[C@@H]3[C@H](O)[C@H](OC(C)=O)[C@@]2(C)O1 [1AFSK, 1-acetyl-forskolin] 3

Which Ki is reported for this compound? C=C[C@@]1(C)CC(=O)[C@]2(O)[C@@]3(C)CCCC(C)(C)[C@@H]3[C@H](O)[C@H](OC(C)=O)[C@@]2(C)O1 [1DOFSK, 1-deoxy-forskolin] 1

Which Ki is reported for this compound? C=C1[C@@H](C)[C@H]2[C@H](Cc3ccccc3)NC(=O)[C@]23[C@H](OC(C)=O)/C=C/[C@](C)(O)C[C@@H](C)C/C=C/[C@H]3[C@@H]1O [CCH, Cytochalasin H] 98

Which Ki is reported for this compound? C=C[C@@]1(C)CC(=O)[C@]2(O)[C@@]3(C)[C@@H](O)CCC(C)(C)[C@@H]3[C@H](O)[C@H](OC(=O)CF)[C@@]2(C)O1 [7FAFSK, 7-fluoroacetyl-forskolin] 629

Which Ki is reported for this compound? C=C[C@@]1(C)CC(=O)[C@H]2[C@](C)(O1)[C@@H](OC(C)=O)[C@@H](O)[C@H]1C(C)(C)CC[C@H](O)[C@@]12C [9DOFSK, 9-deoxy-forskolin] 430

---

TARGET ENTITY: GLUT1 (Homo sapiens)
Format: binding
EXPERIMENTAL PARAMETERS: product
QUANTITY NAME: β*γ
Lab note: record the figure alone, no unit after it.

Below, each entry is followed by its recorded β*γ result.
COMPOUND | READING
C=C[C@@]1(C)CC(=O)[C@]2(O)[C@@]3(C)[C@@H](OC(C)=O)CCC(C)(C)[C@@H]3[C@H](OC(C)=O)[C@H](OC(C)=O)[C@@]2(C)O1 | 724
C=C[C@@]1(C)CC(=O)[C@]2(O)[C@@]3(C)CCCC(C)(C)[C@@H]3[C@H](O)[C@H](OC(C)=O)[C@@]2(C)O1 | 9714
C=C1[C@@H](C)[C@H]2[C@H](Cc3ccccc3)NC(=O)[C@]23[C@H](O)/C=C/[C@](C)(O)C[C@@H](C)C/C=C/[C@H]3[C@@H]1O | 4063
C=C1[C@@H](C)[C@H]2[C@H](Cc3ccccc3)NC(=O)[C@]23OC(=O)/C=C/[C@H](O)CCC[C@@H](C)C/C=C/[C@H]3[C@@H]1O | 39
C=C[C@@]1(C)CC(=O)[C@]2(O)[C@@]3(C)[C@@H](O)CCC(C)(C)[C@@H]3[C@H](O)[C@H](OC(C)=O)[C@@]2(C)O1 | 1
CC[C@@]1(C)CC(=O)[C@@]2(O)[C@]3(C)[C@H](O)CCC(C)(C)[C@H]3[C@@H](O)[C@@H](OC(C)=O)[C@]2(C)O1 [14.15DiHFSK, 14,15-dihydro-forskolin] | 139
C=C[C@@]1(C)CC(=O)[C@]2(O)[C@@]3(C)[C@@H](O)CCC(C)(C)[C@@H]3[C@H](O)[C@H](OC(=O)CF)[C@@]2(C)O1 | 22
C=C1[C@@H](C)[C@H]2[C@H](Cc3ccccc3)NC(=O)[C@]23[C@H](OC(C)=O)/C=C/[C@](C)(O)C[C@@H](C)C/C=C/[C@H]3[C@@H]1O | 110

Which β*γ is reported for this compound? C=C1[C@@H](C)[C@H]2[C@H](Cc3ccccc3)NC(=O)[C@]23OC(=O)/C=C/C(=O)CCC[C@@H](C)C/C=C/[C@H]3[C@@H]1O 0.42

Which β*γ is reported for this compound? C=C[C@@]1(C)CC(=O)[C@]2(O)[C@@]3(C)[C@@H](OC(C)=O)CCC(C)(C)[C@@H]3[C@H](O)[C@H](OC(C)=O)[C@@]2(C)O1 5246

Which β*γ is reported for this compound? C=C1[C@@H](C)[C@H]2[C@H](Cc3ccccc3)NC(=O)[C@]23[C@H](OC(C)=O)/C=C/[C@@](C)(O)C(=O)[C@@H](C)C/C=C/[C@H]3[C@@H]1O 51

Which β*γ is reported for this compound? C=C[C@@]1(C)CC(=O)[C@H]2[C@](C)(O1)[C@@H](OC(C)=O)[C@@H](O)[C@H]1C(C)(C)CC[C@H](O)[C@@]12C 56

Which β*γ is reported for this compound? C[C@H]1C/C=C/[C@H]2[C@@H]3O[C@]3(C)[C@@H](C)[C@H]3[C@H](Cc4ccccc4)NC(=O)[C@]32OC(=O)O/C=C/[C@@](C)(O)C1=O 4394

---

TARGET ENTITY: GLUT1 (Homo sapiens)
Format: binding
EXPERIMENTAL PARAMETERS: change in ΔG° relative to baseline cytochalasin or forskolin
Mark rule met for ΔΔG° under 0.01 kcal/mol, rule not met if at or over.

Below are worked cases with known answers.
COMPOUND | TARGET ENTITY | ASSIGNED LABEL
C=C1[C@@H](C)[C@H]2[C@H](Cc3ccccc3)NC(=O)[C@]23[C@H](O)/C=C/[C@](C)(O)C[C@@H](C)C/C=C/[C@H]3[C@@H]1O [CCJ, Cytochalasin J] | GLUT1 (Homo sapiens) | rule met
C=C1[C@@H](C)[C@H]2[C@H](Cc3ccccc3)NC(=O)[C@]23OC(=O)/C=C/C(=O)CCC[C@@H](C)C/C=C/[C@H]3[C@@H]1O [CCA, Cytochalasin A] | GLUT1 (Homo sapiens) | rule not met
CC(=O)O[C@@H]1/C=C\[C@@](C)(O)C(=O)[C@@H](C)C/C=C\[C@H]2[C@H](O)C(C)=C(C)[C@H]3C(Cc4ccccc4)NC(=O)[C@]132 (some centres unmarked) [CCC, Cytochalasin C] | GLUT1 (Homo sapiens) | rule not met

Is it true that ΔΔG° reported for C=C[C@@]1(C)CC(=O)[C@]2(O)[C@@]3(C)[C@@H](O)CCC(C)(C)[C@@H]3[C@H](O)[C@H](OC(=O)CF)[C@@]2(C)O1 [7FAFSK, 7-fluoroacetyl-forskolin] is less than 0.01 kcal/mol? rule met

---

Inhibition (type of modulation of CB binding) values for the molecules below.
TARGET ENTITY: GLUT1 (Homo sapiens)
Format: binding
EXPERIMENTAL PARAMETERS: 50 nM [3H]-CB, competing ligand 0 to 100 μM
Lab note: record the figure alone, no unit after it.

Below, each entry is followed by its recorded Inhibition (type of modulation of CB binding) result.
MOLECULE | READING
C=C[C@@]1(C)CC(=O)[C@]2(O)[C@@]3(C)[C@@H](O)CCC(C)(C)[C@@H]3[C@H](O)[C@H](OC(C)=O)[C@@]2(C)O1 [FSK, forskolin] | 1
C=C1[C@@H](C)[C@H]2[C@H](Cc3ccccc3)NC(=O)[C@]23[C@H](OC(C)=O)/C=C/[C@](C)(O)C[C@@H](C)C/C=C/[C@H]3[C@@H]1O [CCH, Cytochalasin H] | 2
C=C[C@@]1(C)CC(=O)[C@]2(O)[C@@]3(C)[C@@H](O)CCC(C)(C)[C@@H]3[C@H](OC(C)=O)[C@H](O)[C@@]2(C)O1 [6A7DeAFSK, 6-acetyl, 7-deacetyl-forskolin] | 5
C[C@H]1C/C=C/[C@H]2[C@@H]3O[C@]3(C)[C@@H](C)[C@H]3[C@H](Cc4ccccc4)NC(=O)[C@]32OC(=O)O/C=C/[C@@](C)(O)C1=O [CCE, Cytochalasin E] | 3

Query molecule follows.
Which Inhibition (type of modulation of CB binding) is reported for this molecule? CC[C@@]1(C)CC(=O)[C@@]2(O)[C@]3(C)[C@H](O)CCC(C)(C)[C@H]3[C@@H](O)[C@@H](OC(C)=O)[C@]2(C)O1 [14.15DiHFSK, 14,15-dihydro-forskolin] 1

---

TARGET ENTITY: GLUT1 (Homo sapiens)
Assay type: binding
EXPERIMENTAL PARAMETERS: 50 nM [3H]-CB, 4°C, eqn 6
β (cooperativity parameter, second inhibitor molecule) values for the molecules below.
Lab note: record the figure alone, no unit after it.

MOLECULE | READING
C[C@H]1C/C=C/[C@H]2[C@@H]3O[C@]3(C)[C@@H](C)[C@H]3[C@H](Cc4ccccc4)NC(=O)[C@]32OC(=O)O/C=C/[C@@](C)(O)C1=O | 7917
C=C[C@@]1(C)CC(=O)[C@H]2[C@](C)(O1)[C@@H](OC(C)=O)[C@@H](O)[C@H]1C(C)(C)CC[C@H](O)[C@@]12C | 120.3
CC[C@@]1(C)CC(=O)[C@@]2(O)[C@]3(C)[C@H](O)CCC(C)(C)[C@H]3[C@@H](O)[C@@H](OC(C)=O)[C@]2(C)O1 [14.15DiHFSK, 14,15-dihydro-forskolin] | 242.7
C=C[C@@]1(C)CC(=O)[C@]2(O)[C@@]3(C)[C@@H](OC(C)=O)CCC(C)(C)[C@@H]3[C@H](O)[C@H](OC(C)=O)[C@@]2(C)O1 | 11923

Which β (cooperativity parameter, second inhibitor molecule) is reported for this molecule? C=C1[C@@H](C)[C@H]2[C@H](Cc3ccccc3)NC(=O)[C@]23[C@H](OC(C)=O)/C=C/[C@@](C)(O)C(=O)[C@@H](C)C/C=C/[C@H]3[C@@H]1O 101

Which β (cooperativity parameter, second inhibitor molecule) is reported for this molecule? C=C[C@@]1(C)CC(=O)[C@]2(O)[C@@]3(C)[C@@H](O)CCC(C)(C)[C@@H]3[C@H](O)[C@H](OC(=O)CF)[C@@]2(C)O1 45.3
